Just for reference, the supplement of paper PMC8728848 is where these values come from.

molecular target: Man(a1-3)[Man(a1-6)]Man; assay: glycan array binding signal (z-score within array); higher = stronger binding; conditions: glycan notation: IUPAC condensed, linker removed
Many of the other results were omitted from the sample, so the strongest signals are more common in it than they were.
Task for the reader: assign each of the following binders its reported glycan array binding signal (z-score).
One number for each entry.

# Binder, glycan array binding signal (z-score)
data = [
    ("LTL (Lotus tetragonolobus), P19664 (protein) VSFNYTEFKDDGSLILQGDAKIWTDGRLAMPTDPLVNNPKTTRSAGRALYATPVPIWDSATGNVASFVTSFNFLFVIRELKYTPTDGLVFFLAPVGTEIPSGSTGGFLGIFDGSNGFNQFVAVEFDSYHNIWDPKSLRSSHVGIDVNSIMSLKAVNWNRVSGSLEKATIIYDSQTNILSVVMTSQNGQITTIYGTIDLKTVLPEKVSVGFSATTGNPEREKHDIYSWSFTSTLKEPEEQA", -0.207),
    ("Annexin-A1 (Mus musculus), P10107 (protein) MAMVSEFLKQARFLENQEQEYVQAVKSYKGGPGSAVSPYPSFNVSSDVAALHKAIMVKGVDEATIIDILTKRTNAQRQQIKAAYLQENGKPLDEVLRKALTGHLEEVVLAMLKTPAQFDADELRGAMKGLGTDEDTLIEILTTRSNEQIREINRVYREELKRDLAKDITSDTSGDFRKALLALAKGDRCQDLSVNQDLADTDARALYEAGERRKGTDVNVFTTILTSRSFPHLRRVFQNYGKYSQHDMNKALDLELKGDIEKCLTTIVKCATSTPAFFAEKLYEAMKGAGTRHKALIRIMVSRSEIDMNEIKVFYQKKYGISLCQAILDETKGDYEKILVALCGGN", -0.165),
    ("Thrombomodulin (Mus musculus) (protein) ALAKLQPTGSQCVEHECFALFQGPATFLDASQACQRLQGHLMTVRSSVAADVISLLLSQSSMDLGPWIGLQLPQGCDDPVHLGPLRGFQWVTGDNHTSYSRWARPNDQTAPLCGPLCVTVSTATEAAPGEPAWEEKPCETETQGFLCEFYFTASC", 0.154),
    ("Mermaid3 (Stilbonema majum) (protein) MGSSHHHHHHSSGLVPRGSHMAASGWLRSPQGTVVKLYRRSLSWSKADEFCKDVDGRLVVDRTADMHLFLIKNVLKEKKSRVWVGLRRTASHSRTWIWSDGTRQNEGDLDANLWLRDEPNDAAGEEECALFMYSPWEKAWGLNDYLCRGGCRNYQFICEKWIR", 0.678),
]

Please turn your attention to the following entry.
Request: Supply glycan array binding signal (z-score) value. Item: MVL (Microcystis viridis), Q9RHG4 (protein) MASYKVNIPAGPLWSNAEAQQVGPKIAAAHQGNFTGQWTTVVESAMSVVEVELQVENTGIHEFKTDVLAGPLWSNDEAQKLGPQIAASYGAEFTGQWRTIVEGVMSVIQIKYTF
Response: -0.232
